// provenance: PubChem BioAssay (NCI)

test system: UO-31 renal; assay: NCI tumour cell line growth inhibition, 48 h

| STRUCTURE STRING | TARGET DESC | TGI |
| --- | --- | --- |
| CC[C@H](CO)Nc1nc(NCc2ccccc2)n2ncc(C(C)C)c2n1 | UO-31 renal | > 100 µM |
| Clc1nc(Cl)c2ncn(C/C=C/COc3cccc(OC/C=C/Cn4cnc5c(Cl)nc(Cl)nc54)c3)c2n1 | UO-31 renal | > 100 µM |
| COC(=O)c1cc2ccc(OC(C)=O)c(OC(C)=O)c2cn1 | UO-31 renal | 30 µM |

* * *

test system: A498 renal; experiment: NCI tumour cell line growth inhibition, 48 h
Each entry below carries its reported TGI.
ENDPOINT LABEL: TGI

| COMPOUND | TARGET DESC | ENDPOINT LABEL | TEST RESULT |
| --- | --- | --- | --- |
| CCOC(=O)c1cc2c(C(=O)c3ccc([N+](=O)[O-])cc3)c(C(C)=O)ccc2[nH]1 | A498 renal | TGI | > 100 µM |
| NC(=S)N/N=C/c1ncccc1N | A498 renal | TGI | > 73.1 µM |
| NNC(=O)Cn1c2ccc(Br)cc2c2nc3ccccc3nc21 | A498 renal | TGI | > 100 µM |
| Cn1cc(C2=C(c3cccc(OCC(O)CO)c3)C(=O)NC2=O)c2ccccc21 (stereo not given) | A498 renal | TGI | > 25 µM |
| O=c1cc(N2CCN(c3cc(=O)n4ccccc4n3)CC2)oc2ccccc12 | A498 renal | TGI | > 100 µM |
| C=C1C(=O)OC2/C=C(/C)C(OC(C)=O)CC(O)/C(C)=C\C(OC(=O)/C(C)=C\C)C12 (stereo not given) | A498 renal | TGI | > 100 µM |
| O=C1C(=O)c2ccccc2C(O)=C1CCCc1ccc(Oc2ccccc2)cc1 | A498 renal | TGI | 90.5 µM |
| COc1ccc(-n2c(=O)n(C)c(=O)n2-c2ccc(OC)cc2)cc1 | A498 renal | TGI | > 100 µM |
| COc1ccc(-c2cc(-c3ccc(Nc4ccnc5cc(Cl)ccc45)cc3)[nH]c(=O)c2C#N)c2ccccc12 | A498 renal | TGI | 49.7 µM |
| Cc1c2c(nn1C)CSCc1cc(n(C)n1)CSc1cc(c3ccccc3c1)OCCCc1c(C(=O)O)n(C)c3c-2c(Cl)ccc13 | A498 renal | TGI | 19 µM |

* * *

tested on: HT29 colon; experiment: NCI tumour cell line growth inhibition, 48 h

| COMPOUND | TGI |
| --- | --- |
| O=C(OCCN=c1c2ccccc2ccc2ccccc12)c1ccc([N+](=O)[O-])cc1 | > 100 µM |
| Cc1ccccc1NC(=O)C(=O)CC(=O)c1c(C)n([O-])c2ccccc2[n+]1=O | > 100 µM |
| CN(C)c1nc2oc(-c3ccccc3)c(-c3ccccc3)c2c2nnnn12 | > 100 µM |
| COc1cc2c(cc1OC)C(Cl)C(c1ccc(Cl)c(Cl)c1)=C2Cl (configuration not stated) | 12.2 µM |
| COc1ccc(/C=C2\CCCC3=C2NC(N)=NC3c2ccc(OC)c(OC)c2)cc1OC (configuration not stated) | > 100 µM |
| COc1c(Cl)cc(NC(=S)C#N)cc1Cl | > 65.8 µM |
| CCOc1cc(C2CC(c3ccc(NS(=O)(=O)c4cc([N+](=O)[O-])ccc4C)cc3)=NN2c2ccc([N+](=O)[O-])cc2[N+](=O)[O-])ccc1O (configuration not stated) | > 100 µM |
| COC(=O)[C@H]1CO[C@H]2C/C(C)=C/CC/C(C)=C/CC[C@@]3(C)O[C@@H]3C[C@H]21 | > 50 µM |
| COc1ccc(C(=O)C(c2ccc(OC)cc2)C2(O)C(=O)Nc3c2ccc(Cl)c3C)cc1 (configuration not stated) | > 100 µM |
| CCCOC(=O)N1CCN(/[N+]([O-])=N/Oc2ccc([N+](=O)[O-])cc2[N+](=O)[O-])CC1 | > 100 µM |
| CC1=NN(c2nc(N)nc(/C(C#N)=C/c3cccn3-c3cc(Cl)cc(Cl)c3)n2)C(C)(C)C1 | > 100 µM |
| COc1cc(C(=O)NC2CCN(C)CC2)c(F)cc1Nc1ncc2c(n1)N(C1CCCC1)CC(F)(F)C(=O)N2C | 11.1 µM |
| COc1cc(C(C)c2cc3c(cc2OCCO)OCO3)cc(OC)c1OC (configuration not stated) | > 100 µM |
| CCCCCCCCCCCCCCCCCCNc1ccn(C2OC(COP(=O)(O)OCC3OC(n4cc(F)c(NCCCCCCCCCCCCCCCCCC)nc4=O)CC3O)C(O)C2O)c(=O)n1 (configuration not stated) | > 100 µM |
| COc1ccc(C(C#N)Cc2cc(OC)c(OC)c(OC)c2)cc1 (configuration not stated) | > 100 µM |
| COc1ccc(OC)c(NC(=O)CCC/C(CC(=O)c2ccc(O)c(OC)c2)=N\Nc2ccc([N+](=O)[O-])cc2)c1 | > 100 µM |
| O=C1/C(=N\S(=O)(=O)c2ccccc2)C([n+]2ccc(Cc3ccccc3)cc2)=C([O-])c2ccccc21 | 1.49 µM |
| CC1=C2C(=CC(C)(C)C2O)C(=O)C(C)(O)C12CC2 (configuration not stated) | 0.0311 µM |
| CC1CC/C(=C\c2ccc(Cl)cc2)C2OC(N)=C(C#N)C(c3ccc(Cl)cc3)=C12 (configuration not stated) | 20.7 µM |
| C[C@]12CC[C@H]3[C@@H](CC[C@]4(O)C[C@@H](O)CC[C@]34/C=N/O)[C@@]1(O)CC[C@@H]2C1=COC(=O)C1 | 0.594 µM |
| CCOC(=O)c1c(N2CCCC2)ncn(Cc2ccccc2)c1=S | > 100 µM |
| COc1ccc(C(=O)c2cc3c(N)c(C(=O)Nc4cccc5ccccc45)sc3nc2C)cc1 | > 50 µM |
| O=C(O)c1nc(-c2ccccc2)[nH]c1C(=O)O | 20.2 µM |
| COC(=O)C(CSSC[C@H](N/C(C)=C/C(C)=O)C(=O)OC)N/C(C)=C/C(C)=O (some centres not stated) | > 100 µM |
| Cc1cc(N2CCCC2)nc(N(CCNc2ccnc3cc(Cl)ccc23)Cc2ccco2)n1 | > 100 µM |
| C[Si](C)(C)c1ccc(-c2sc(-c3ccc([Si](C)(C)C)s3)c3c2C[Si]2(C3)Cc3c(-c4ccc([Si](C)(C)C)s4)sc(-c4ccc([Si](C)(C)C)s4)c3C2)s1 | > 100 µM |
| COc1cc(/C=C2\Sc3scc(-c4cccc([N+](=O)[O-])c4)[n+]3C2=O)cc(OC)c1OC | 41.2 µM |
| COC(=O)C1=CC2C(=O)OC1CC2C#N (configuration not stated) | > 100 µM |
| COc1ccc(C2N(NC(=O)c3ccncc3)C(=O)CS2(=O)=O)cc1F (configuration not stated) | > 100 µM |
| O=C(Nc1ccc(Cl)cc1)Nc1ccc(Nc2nncc3ccccc23)cc1 | 14.1 µM |
| CC1(C)[C@@H](OC(N)=O)[C@H]2O[C@H]2[C@]2(CO)[C@H]3CC[C@]4(C)[C@@H](c5ccc(=O)oc5)[C@@H](Cl)C[C@]4(O)C3=CC[C@@H]12 | 0.0238 µM |
| NC(=S)N/N=C/c1ncccc1N | > 63.4 µM |
| O=C1c2cc3c(cc2CC12Cc1ccc4c(c1C2=O)CCCC4)CCCC3 (configuration not stated) | > 100 µM |
| CC(=O)Nc1ccc(OC2=CCN(C)CC2)cc1 | > 100 µM |
| Cc1cc(Cl)ccc1NC(=O)CC/C(CC(=O)C(C)C)=N\NC(=O)C[n+]1ccccc1 | > 100 µM |
| COc1cccc(-n2ncc3c(N/N=C/c4ccncc4)ncnc32)c1 | > 25 µM |
| c1ccc2c(c1)CCc1c-2n(CCN2CCOCC2)c2ccccc12 | 25.9 µM |

* * *

test system: IGROV1 ovarian; assay: NCI tumour cell line growth inhibition, 48 h

| MOLECULE | TGI |
| --- | --- |
| CC1(c2ccc[n+](Cc3ccccc3)c2)OCCO1 | > 100 µM |
| CC1=C(CO)C(=O)O[C@@H]([C@@H](C)[C@H]2CC[C@H]3[C@@H]4C[C@@H](O)[C@@]5(O)CC=CC(=O)[C@]5(C)[C@H]4CC[C@]23C)C1 | 31.6 µM |
| COc1cc(C2c3cc4c(cc3OC(NNC(N)=O)C2C)OCO4)cc(OC)c1O (stereo not given) | > 100 µM |
| COc1ccc(C(SC2C(O)C(CO)OC2n2ccc(N)nc2=O)(c2ccccc2)c2ccc(OC)cc2)cc1 (stereo not given) | 67 µM |
| Cc1cc(N2CCCC2)nc(N(CCNc2ccnc3cc(Cl)ccc23)Cc2ccco2)n1 | > 100 µM |
| COC(=O)c1cc(Cl)ccc1NC(=O)c1ccc([N+](=O)[O-])cc1 | 57.8 µM |
| CCc1cccc(C)c1NC(=O)C(=O)Cc1nc2ccccc2s1 | 20.8 µM |
| COC(=O)c1c(O)ccc2c1c1c(n2Cc2cccc(C)c2)C(=O)c2ccccc2C1=O | 24.2 µM |
| N#Cc1c(-c2ccc(Cl)cc2)c2c(n(C3OC(CO)C(O)C(O)C3O)c1=S)CCC2 (stereo not given) | > 100 µM |
| Cc1ccc2c(c1C)C(=O)/C(=C/c1ccccc1C(=O)O)C2 | > 100 µM |
| CCN(C(=S)N[C@H](C(=O)N[C@@H](C)C(=O)OC)C(C)C)c1ccccc1 | > 100 µM |
| C1=C2/CC[C@H](Sc3ccccc3)[C@H]2C2(CCCCC/1)OCCO2 | > 100 µM |
| COc1ccc(C)cc1Nc1nnc(-c2ccccc2N)s1 | > 100 µM |
| O=C(Nc1cccc(NC(=O)Nc2cc(C(F)(F)F)ccc2Cl)c1)Nc1cc(C(F)(F)F)ccc1Cl | 18.8 µM |
| Clc1nc(Cl)c2ncn(C/C=C/COc3cccc(OC/C=C/Cn4cnc5c(Cl)nc(Cl)nc54)c3)c2n1 | > 100 µM |
| c1cn(C23C4C5C6C4C2C6C53)cn1 (stereo not given) | > 100 µM |
| O=C1c2ccccc2-c2c1c1ccccc1c(=O)n2CCN1CCOCC1 | > 100 µM |
| C[C@]12CCC3[C@@H](CC[C@@H]4c5nonc5CC[C@]34C)C1C/C(=N/O)C2=O (stereo not given in full) | > 100 µM |
| C=C1C(=O)OC2/C=C(/C)C(OC(C)=O)CC(O)/C(C)=C\C(OC(=O)/C(C)=C\C)C12 (stereo not given) | > 100 µM |
| OC(CCNCc1ccccc1)c1ccc2ccccc2c1 (stereo not given) | 30.6 µM |
| CCOC(=O)Cc1cc(OC)c(OC)cc1/C(Cl)=C(\C=O)c1ccc(OC)c(OC)c1 | 78.9 µM |
| CC(=O)Nc1ccc(OC2=CCN(C)CC2)cc1 | > 100 µM |
| O=CN/C=C/c1ccc(O)c(O)c1 | > 100 µM |
| COc1ccc(/C=C2\CCCC3=C2NC(N)=NC3c2ccc(OC)c(OC)c2)cc1OC (stereo not given) | > 100 µM |
| C/C=C(\C)C(=O)O[C@H]1C=CC(=O)O[C@@H]1CC[C@H](O)[C@H](C)O | > 100 µM |
| CN1CCN(CCCBr)CC1 | > 100 µM |
| CC(C)(O)CC(=O)NCCn1ccc2ncnc(Nc3ccc(Oc4cccc(C(F)(F)F)c4)c(Cl)c3)c21 | > 10 µM |
| CN(/N=C/c1cccc2cccnc12)c1ccccc1 | > 100 µM |
| COc1cc(/C=C2\Sc3scc(-c4cccc([N+](=O)[O-])c4)[n+]3C2=O)cc(OC)c1OC | 29.4 µM |
| O=C(c1cc(Cl)ccc1Cl)N1CCN(C(=O)c2cc(Cl)ccc2Cl)CC1 | > 100 µM |
| NCCCN(CCCN)CCN(CCN(CCCN)CCCN)CCN(CCCN)CCCN | > 100 µM |
| COc1ccc(OC)c(-c2c(C#N)c(N)nc(N3CCOCC3)c2C#N)c1 | > 100 µM |
| S=C1SCN(Cc2ccco2)CN1c1ccc(Br)cc1 | 45.7 µM |
| O=C(OCCN=c1c2ccccc2ccc2ccccc12)c1ccc([N+](=O)[O-])cc1 | > 100 µM |
| O=S1(=O)OCCOS(=O)(=O)C1Cc1ccccc1 | 93.3 µM |
| Cc1nc2c(sc(=S)n2-c2ccccc2)c(=O)[nH]1 | > 100 µM |
| COc1ccc(-c2cc(-c3ccc(Nc4ccnc5cc(Cl)ccc45)cc3)[nH]c(=O)c2C#N)c2ccccc12 | > 79.1 µM |
| CCOc1ccccc1N=Nc1c(C)[nH]n(-c2nc(-c3ccccc3)cs2)c1=O | > 85.3 µM |
| CCOC(=O)NC(=O)c1cn(CCN2CCN(c3ncnc4nc[nH]c34)CC2)c(=O)[nH]c1=O | > 100 µM |
| CC1(C)CC(=O)c2c(nc3ccc4ccccc4c3c2-c2ccc(NC(=O)CCCCCCCCC(=O)Nc3ccc(-c4c5c(nc6ccc7ccccc7c46)CC(C)(C)CC5=O)cc3)cc2)C1 | > 100 µM |
